# subject.of.test: Lp-PLA2 in human serum (Homo sapiens, UniProt Q13093)
# Construct: from tissue
# Sequence (Q13093 22-441): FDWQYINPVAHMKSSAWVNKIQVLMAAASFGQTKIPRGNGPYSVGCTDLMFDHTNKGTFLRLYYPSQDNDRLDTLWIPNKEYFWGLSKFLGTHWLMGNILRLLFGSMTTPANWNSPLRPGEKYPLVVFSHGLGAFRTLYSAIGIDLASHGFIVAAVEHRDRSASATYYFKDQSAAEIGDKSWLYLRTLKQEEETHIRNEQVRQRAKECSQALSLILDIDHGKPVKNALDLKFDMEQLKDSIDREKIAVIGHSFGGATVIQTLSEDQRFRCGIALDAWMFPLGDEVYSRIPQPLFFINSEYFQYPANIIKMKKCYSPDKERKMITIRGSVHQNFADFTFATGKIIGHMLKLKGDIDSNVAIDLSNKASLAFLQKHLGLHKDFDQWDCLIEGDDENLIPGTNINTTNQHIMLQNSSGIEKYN
# measurement.protocol: In vitro inhibitory activity towards the enzyme Lp-PLA2 in human serum, [3H]PAF substrate
# Assay type: biochemical
# experimental.setup: 100 nM; human serum
parameter: inhibition at 0.1 µM (%)

input: State the recorded inhibition at 0.1 µM for this entry: `O=c1nc(SCc2ccc(F)cc2)n(Cc2ncc(C[N+]3(Cc4ccc(F)cc4)CCCC3)n2Cc2ccc(-c3ccc(C(F)(F)F)cc3)cc2)c2c1CCC2`
output: 98

input: Can you handle `O=c1nc(SCc2ccc(F)cc2)n(Cc2nnc(C3CC3)n2Cc2ccc(-c3ccc(C(F)(F)F)cc3)cc2)c2c1CCC2` next?
output: 97

input: And then `CCN1CCN(Cc2nnc(Cn3c(SCc4ccc(F)cc4)nc(=O)c4c3CCC4)n2Cc2ccc(-c3ccc(C(F)(F)F)cc3)cc2)CC1` , what is it?
output: 96

input: Entry to check: `CN(C)C(=O)c1cnc(Cn2c(SCc3ccc(F)cc3)nc(=O)c3c2CCC3)n1Cc1ccc(-c2ccc(C(F)(F)F)cc2)cc1`
output: 99

input: And for `CN(C)Cc1nnc(Cn2c(SCc3ccc(F)cc3)nc(=O)c3c2CCC3)n1Cc1ccc(-c2ccc(C(F)(F)F)cc2)cc1` ?
output: 97

input: Same read-out for `COC(=O)C(C)(C)N1CCN(Cc2nnc(Cn3c(SCc4ccc(F)cc4)nc(=O)c4c3CCC4)n2Cc2ccc(-c3ccc(C(F)(F)F)cc3)cc2)CC1` ?
output: 91

input: Okay, and `Cc1nnc(Cn2c(SCc3ccc(F)cc3)nc(=O)c3c2CCC3)n1Cc1ccc(-c2ccc(C(F)(F)F)cc2)cc1` ?
output: 93

input: One more molecule: `Cc1nnc(Cn2cc(Cc3cnn(C)c3)c(=O)nc2SCc2ccc(F)cc2)n1Cc1ccc(-c2ccc(C(F)(F)F)cc2)cc1`
output: 96

input: Would you kindly repeat that for CCN1CCCC1CNCc1nnc(Cn2c(SCc3ccc(F)cc3)nc(=O)c3c2CCC3)n1Cc1ccc(-c2ccc(C(F)(F)F)cc2)cc1 (racemic) ?
output: 95

input: Try the molecule `O=c1nc(SCc2ccc(F)cc2)n(Cc2nnc(CS(=O)(=O)Cc3ccccc3)n2Cc2ccc(-c3ccc(C(F)(F)F)cc3)cc2)c2c1CCC2`
output: 97

input: Next: `C[N+](C)(C)Cc1nnc(Cn2c(SCc3ccc(F)cc3)nc(=O)c3c2CCC3)n1Cc1ccc(-c2ccc(C(F)(F)F)cc2)cc1`
output: 98

input: Now give it for `C[N+](C)(Cc1ccc(F)cc1)Cc1nnc(Cn2c(SCc3ccc(F)cc3)nc(=O)c3c2CCC3)n1Cc1ccc(-c2ccc(C(F)(F)F)cc2)cc1` too.
output: 100

input: // query: `O=c1nc(SCc2ccc(F)cc2)n(Cc2ncn(Cc3ccc(-c4ccc(C(F)(F)F)cc4)cc3)n2)c2c1CCC2`
output: 91
